Where do these numbers come from? They come from paper PMC5934316.

system: STAT3-dependent luciferase reporter; assay: STAT3-dependent luciferase reporter assay; format: cell-based, human; settings: Homo sapiens, MDA-MB-231, read-out: IC50, inhibition of STAT3-dependent luciferase expression

{"columns": ["Molecule", "Tgt", "IC50"],
 "data": [
  ["N#CCCCn1cc(C2=C(c3cn(CCCC#N)c4ccccc34)C(=O)NC2=O)c2ccccc21 [BMA097]", "STAT3-dependent luciferase reporter", "~1.8 µM"]
]}

---

test: MTT survival assay; type: cell-based; conditions: human, MCF10A cells, IC50, cytotoxicity, 72 hrs
Test Readout: IC50 at 72 h

{"columns": ["Molecule", "Test Readout", "Recorded Measurement"],
 "data": [
  ["N#CCCCn1cc(C2=C(c3cn(CCCC#N)c4ccccc34)C(=O)NC2=O)c2ccccc21 [BMA097]", "IC50 at 72 h", "6.5 µM"]
]}
